- SYSTEM: RORc ligand binding domain (Homo sapiens, UniProt P51449)
- Construct: host or cells: E. coli
- Sequence (P51449 269-508 limits assumed, species assumed): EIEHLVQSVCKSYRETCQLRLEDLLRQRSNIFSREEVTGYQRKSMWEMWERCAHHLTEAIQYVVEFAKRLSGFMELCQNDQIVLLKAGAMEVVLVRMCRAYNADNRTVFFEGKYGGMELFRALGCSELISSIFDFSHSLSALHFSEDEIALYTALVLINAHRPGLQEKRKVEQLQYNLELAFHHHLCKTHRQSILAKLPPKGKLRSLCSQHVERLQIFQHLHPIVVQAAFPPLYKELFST
- TEST: In Vitro RORc Ligand Binding Assay (25-[3H]hydroxycholesterol radioligand filtration)
- SETTINGS: In Vitro RORc Ligand Binding Assay; Table 4; read-out: RORc IC50
VALUE_KIND: IC50 (nM)
Answers are plain numbers, in nM.

C[C@H]1CCC(c2ccccc2)S(=O)(=O)N1Cc1ccc(N2CC(C3CCOCC3)C2)cc1F (single isomer, unassigned) [Example 108]    33
C[C@H]1CCC(c2ccccc2)S(=O)(=O)N1Cc1ccc(C(=O)N2CCCCC2CO)cc1 (stereo partly shown)    2650
CC(=O)N1CC2(C1)CN(C(=O)c1ccc(CN3[C@@H](C)CCC(c4ccccc4)S3(=O)=O)cc1)C2 (stereo partly shown)    5280

The following compounds each have a reported value; give each one's IC50.
1. CC[C@H]1CCC(c2ccccc2)S(=O)(=O)N1Cc1ccc(N2CCC(n3cnnc3)CC2)cc1F (single isomer, unassigned) [Example 228]
2. CC(=O)N1CCN(c2ccc(CN3[C@@H](C)CCC(c4cccc(C#N)c4)S3(=O)=O)c(F)c2)CC1 (single isomer, unassigned) [Example 202]

Solution:
21
738
